Ref: ChEMBL document CHEMBL1140201

# target-system: CAR (NR1I3) His203Ala mutant (Homo sapiens, UniProt Q14994, H203A)
# Sequence (Q14994 whole entry H203A, the tested form may be a part): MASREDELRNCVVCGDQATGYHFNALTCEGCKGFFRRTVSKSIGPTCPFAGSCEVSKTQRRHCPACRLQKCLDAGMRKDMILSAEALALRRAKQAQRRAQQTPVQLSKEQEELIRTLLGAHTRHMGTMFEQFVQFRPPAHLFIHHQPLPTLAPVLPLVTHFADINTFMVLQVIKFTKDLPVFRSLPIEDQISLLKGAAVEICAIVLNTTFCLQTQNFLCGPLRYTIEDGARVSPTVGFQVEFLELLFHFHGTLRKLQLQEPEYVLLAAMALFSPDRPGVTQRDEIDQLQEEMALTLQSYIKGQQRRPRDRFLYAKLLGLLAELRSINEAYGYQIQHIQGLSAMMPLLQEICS
# assay: Activation of human CAR His203Ala mutant expressed in human C3A cells at 10 uM after 24 hrs by GAL4-dependent luciferase reporter gene assay relative to control
# Type: cell-based
# applied-conditions: C3A cells expressing human CAR His203Ala mutant, read-out: FC
Binary label based on fold induction at 24 h, 10 µM with cut-off 2: below gives Criterion met, not below gives Criterion not met.

Prompt line: # check: fold induction at 24 h, 10 µM < 2 for CCCCN(c1ccccc1)S(=O)(=O)c1cccc2ccccc12
Response line: Criterion not met

Prompt line: Consider CN(C)c1ccc(NS(=O)(=O)c2ccc(Br)cc2)cc1 . Does its fold induction at 24 h, 10 µM lie strictly below 2?
Response line: Criterion not met

Prompt line: Hi there! Is fold induction at 24 h, 10 µM for Cn1ccnc1CN1CCCN(C(=O)Nc2ccc(F)c(F)c2F)CC1 below 2, do you know?
Response line: Criterion met

Prompt line: Is the reported fold induction at 24 h, 10 µM for CCN(CC)c1ccc(NS(=O)(=O)c2ccc(Cl)cc2)c(C)c1 strictly below 2?
Response line: Criterion not met

Prompt line: Find out if reported fold induction at 24 h, 10 µM for CCC(=O)NCC(=O)N1CCCN1C(=O)Cc1c(C)[nH]c2ccccc12 is less than 2
Response line: Criterion not met

Prompt line: Just wondering, is fold induction at 24 h, 10 µM of CCOc1ccccc1CCCNC(=O)Nc1c(CC)cccc1CC below 2?
Response line: Criterion met

Prompt line: State whether 2 exceeds fold induction at 24 h, 10 µM recorded for CSCCN1C(=O)CS[C@@H]1c1ccc(Br)s1 .
Response line: Criterion met

Prompt line: Dear reviewer, please state whether CCCCCNC(=O)Nc1c(C)cccc1C(C)(C)C has fold induction at 24 h, 10 µM strictly beneath 2.
Response line: Criterion not met

Prompt line: Report whether reported fold induction at 24 h, 10 µM is lower than 2 (strictly) for CCOc1ccccc1N1CCN(Cc2ccc(C)s2)CC1
Response line: Criterion met

Prompt line: Criterion: fold induction at 24 h, 10 µM strictly below 2. Is it met by CSc1ccccc1NS(=O)(=O)c1cc(Cl)sc1Cl ?
Response line: Criterion met

Prompt line: Is 2 strictly greater than the compound's reported fold induction at 24 h, 10 µM? compound: Cc1cccc(NC(=O)N2CCN(c3cccc(C)c3)[C@H](C)C2)c1
Response line: Criterion met

Prompt line: Hello, I'm reviewing records and need to know if fold induction at 24 h, 10 µM of C[C@@H]1Cc2ccccc2N1S(=O)(=O)c1cccc2nsnc12 is below 2. Could you check?
Response line: Criterion met

----------
# target-system: CAR (NR1I3) Asn165Ala mutant (Homo sapiens, UniProt Q14994, N165A)
# Sequence (Q14994 whole entry N165A, the tested form may be a part): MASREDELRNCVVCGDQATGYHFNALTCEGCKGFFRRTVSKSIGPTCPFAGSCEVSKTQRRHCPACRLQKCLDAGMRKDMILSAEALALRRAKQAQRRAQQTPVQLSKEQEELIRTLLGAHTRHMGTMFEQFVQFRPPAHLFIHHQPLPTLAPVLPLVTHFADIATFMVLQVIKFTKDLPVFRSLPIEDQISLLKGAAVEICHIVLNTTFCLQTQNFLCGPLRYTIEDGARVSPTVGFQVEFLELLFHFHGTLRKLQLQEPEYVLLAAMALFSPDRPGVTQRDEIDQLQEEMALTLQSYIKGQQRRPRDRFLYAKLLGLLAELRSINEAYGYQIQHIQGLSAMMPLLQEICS
# assay: Activation of human CAR Asn165Ala mutant expressed in human C3A cells at 10 uM after 24 hrs by GAL4-dependent luciferase reporter gene assay relative to control
# Format: cell-based
# applied-conditions: C3A cells expressing human CAR Asn165Ala mutant, read-out: FC
measurement-kind: fold induction at 24 h, 10 µM

Prompt line: Assign fold induction at 24 h, 10 µM to the following record: CCN(CC)c1ccc(NS(=O)(=O)c2ccc(Cl)cc2)c(C)c1
Response line: 1.1

Prompt line: Give the value of fold induction at 24 h, 10 µM reported for the following: C[C@@H]1Cc2ccccc2N1S(=O)(=O)c1cccc2nsnc12
Response line: 1.05

Prompt line: # return recorded fold induction at 24 h, 10 µM for entry O=C1CS[C@H](c2ccncc2)N1Cc1nc2ccccc2[nH]1
Response line: 1.19

Prompt line: In one line, give reported fold induction at 24 h, 10 µM of the entry Cc1cccc(NC(=O)N(Cc2ccccc2)Cc2ccccc2)c1 .
Response line: 3.64

Prompt line: Fill in reported fold induction at 24 h, 10 µM for this entry: O=S(=O)(Nc1nc2c(s1)CCCC2)c1ccc(Br)s1
Response line: 1.01

----------
# target-system: CAR (NR1I3) Ile164Ala mutant (Homo sapiens, UniProt Q14994, I164A)
# Sequence (Q14994 whole entry I164A, the tested form may be a part): as the sequence (Q14994 whole entry N165A, the tested form may be a part) above, with I164A, A165N counted along it
# assay: Activation of human CAR Ile164Ala mutant expressed in human C3A cells at 4 uM after 24 hrs by GAL4-dependent luciferase reporter gene assay relative to control
# Format: cell-based
# applied-conditions: C3A cells expressing human CAR Ile164Ala mutant, read-out: FC
measurement-kind: fold induction at 24 h, 4 µM
Kindly provide the number alone.

Prompt line: Provide fold induction at 24 h, 4 µM value for the following compound: Clc1ccccc1C(c1ccccc1)(c1ccccc1)n1ccnc1 [CLOTRIMAZOLE]
Response line: 21.3

----------
Provide the recorded fold induction at 24 h, 10 µM for the entries that follow.
# target-system: CAR (NR1I3) His203Ala mutant (Homo sapiens, UniProt Q14994, H203A)
# assay: Activation of human CAR His203Ala mutant expressed in human C3A cells at 10 uM after 24 hrs by GAL4-dependent luciferase reporter gene assay relative to control
# Type: cell-based
# applied-conditions: C3A cells expressing human CAR His203Ala mutant, read-out: FC
Output spec: single numeric token, no unit.

Prompt line: Param request: fold induction at 24 h, 10 µM | system CAR (NR1I3) His203Ala mutant (Homo sapiens, UniProt Q14994, H203A) | item O=S(=O)(NCC(c1ccccc1)c1ccccc1)c1cccs1
Response line: 1.86

Prompt line: System CAR (NR1I3) His203Ala mutant (Homo sapiens, UniProt Q14994, H203A). Read-out fold induction at 24 h, 10 µM. Item O=P(Oc1ccccc1)(Oc1ccccc1)Oc1ccccc1 [TRIPHENYL PHOSPHATE] . Report value.
Response line: 2.79

Prompt line: State the measured fold induction at 24 h, 10 µM (CAR (NR1I3) His203Ala mutant (Homo sapiens, UniProt Q14994, H203A)) of CCc1cc(Br)ccc1S(=O)(=O)NCc1ccccc1
Response line: 1.92

Prompt line: Quote fold induction at 24 h, 10 µM with test system CAR (NR1I3) His203Ala mutant (Homo sapiens, UniProt Q14994, H203A) for CCCc1ccc(S(=O)(=O)N(Cc2ccccc2)c2ccc(OC)cc2)cc1
Response line: 3.68

Prompt line: With CAR (NR1I3) His203Ala mutant (Homo sapiens, UniProt Q14994, H203A) as the test system, provide measured fold induction at 24 h, 10 µM for this molecule: O=S(=O)(NCCSCc1ccccc1)c1ccc(Cl)cc1
Response line: 3.21

Prompt line: Quote CAR (NR1I3) His203Ala mutant (Homo sapiens, UniProt Q14994, H203A) fold induction at 24 h, 10 µM for entry Cc1cccc(NC(=O)N(Cc2ccccc2)Cc2ccccc2)c1 .
Response line: 3.48

----------
Provide the recorded fold induction at 24 h, 10 µM for the entries that follow.
# target-system: CAR (NR1I3) Phe161Ala mutant (Homo sapiens, UniProt Q14994, F161A)
# Sequence (Q14994 whole entry F161A, the tested form may be a part): as the sequence (Q14994 whole entry H203A, the tested form may be a part) above, with F161A, A203H counted along it
# assay: Activation of human CAR Phe161Ala mutant expressed in human C3A cells at 10 uM after 24 hrs by GAL4-dependent luciferase reporter gene assay relative to control
# Assay type: cell-based
# applied-conditions: C3A cells expressing human CAR Phe161Ala mutant, read-out: FC
Form rule: numeric answer, no unit written next to it.

Prompt line: Fill in fold induction at 24 h, 10 µM for record Cc1cccc(NC(=O)N2CCN(c3cccc(C)c3)[C@H](C)C2)c1
Response line: 1.38

Prompt line: State its fold induction at 24 h, 10 µM for this molecule: O=S(=O)(NCC(c1ccccc1)c1ccccc1)c1cccs1
Response line: 0.95

Prompt line: Given Cc1cccc(NC(=O)N(Cc2ccccc2)Cc2ccccc2)c1 , respond with its fold induction at 24 h, 10 µM.
Response line: 1.53

Prompt line: Dear colleague, please send me the reported fold induction at 24 h, 10 µM for CCc1cccc(NC(=O)N(CC)[C@H](C)Cc2ccc(OC)cc2)c1 when you can.
Response line: 0.92

Prompt line: Hello, please tell me recorded fold induction at 24 h, 10 µM for this one: O=P(Oc1ccccc1)(Oc1ccccc1)Oc1ccccc1 [TRIPHENYL PHOSPHATE]
Response line: 0.82

Prompt line: Look up fold induction at 24 h, 10 µM of CCOc1ccccc1N1CCN(Cc2ccc(C)s2)CC1 and report it.
Response line: 1.01

Prompt line: Tell us which fold induction at 24 h, 10 µM value is on record for CCc1cc(Br)ccc1S(=O)(=O)NCc1ccccc1
Response line: 3.36

Prompt line: State, in one line, measured fold induction at 24 h, 10 µM of CCc1ccc(S(=O)(=O)Nc2ccccc2C(C)(C)C)cc1
Response line: 0.94

Prompt line: Could you please provide reported fold induction at 24 h, 10 µM for Cn1ccnc1CN1CCCN(C(=O)Nc2ccc(F)c(F)c2F)CC1 ? Thanks!
Response line: 1.24

Prompt line: # return recorded fold induction at 24 h, 10 µM for entry CCOc1ccccc1CCCNC(=O)Nc1c(CC)cccc1CC
Response line: 1.52

Prompt line: For the molecule C[C@@H]1Cc2ccccc2N1S(=O)(=O)c1cccc2nsnc12 , report fold induction at 24 h, 10 µM.
Response line: 1.3

Prompt line: Name the recorded fold induction at 24 h, 10 µM of the item O=S(=O)(NCCSCc1ccccc1)c1ccc(Cl)cc1 in your answer.
Response line: 0.92

Prompt line: Indicate the recorded fold induction at 24 h, 10 µM value for this molecule: CCCCN(c1ccccc1)S(=O)(=O)c1cccc2ccccc12
Response line: 4.4

Prompt line: Let me know recorded fold induction at 24 h, 10 µM for CCC(=O)NCC(=O)N1CCCN1C(=O)Cc1c(C)[nH]c2ccccc12 , thanks.
Response line: 0.96

Prompt line: Return fold induction at 24 h, 10 µM for the following molecule: CSc1ccccc1NS(=O)(=O)c1cc(Cl)sc1Cl
Response line: 0.94

Prompt line: Give the measured fold induction at 24 h, 10 µM for O=S(=O)(Nc1nc2c(s1)CCCC2)c1ccc(Br)s1
Response line: 1

Prompt line: Please supply the value of reported fold induction at 24 h, 10 µM for the item COc1ccc(OC)c(CN2C(=O)CS[C@@H]2c2ccc(F)c(Br)c2)c1
Response line: 1.17

Prompt line: For the molecule CCc1cc(Br)ccc1S(=O)(=O)Nc1ccccc1[C@@H](C)CC , give its measured fold induction at 24 h, 10 µM value.
Response line: 3.62

Prompt line: Note fold induction at 24 h, 10 µM for the molecule shown: CCCc1ccc(S(=O)(=O)N(Cc2ccccc2)c2ccc(OC)cc2)cc1
Response line: 1.22

Prompt line: Please report fold induction at 24 h, 10 µM for the following molecule: Cc1ccc(NC(=O)NC2CCC2)cc1C
Response line: 1.15

Prompt line: Give the reported fold induction at 24 h, 10 µM for this molecule. O=C1CS[C@H](c2ccncc2)N1Cc1nc2ccccc2[nH]1
Response line: 1.3

Prompt line: Dear colleague, please send me the reported fold induction at 24 h, 10 µM for CSCCN1C(=O)CS[C@@H]1c1ccc(Br)s1 when you can.
Response line: 0.97

Prompt line: Look up and state reported fold induction at 24 h, 10 µM for O=C(NCC1CCCCC1)N[C@H]1C[C@@H]1c1ccccc1
Response line: 1.21

Prompt line: Report measured fold induction at 24 h, 10 µM; entry is CCN(c1ccccc1)S(=O)(=O)c1ccc(C(C)(C)CC)cc1
Response line: 1.56
